Value source: patent US10399940B2

# system_under_test: F508delCFTR (Homo sapiens, UniProt P13569, DEL508-508)
# Construct: expressed in transfected cells; host or cells: CFBE41o- (human lung derived epithelial cell line), doxycycline-inducible expression
# Sequence (P13569 with tags, fused parts or gaps DEL508-508): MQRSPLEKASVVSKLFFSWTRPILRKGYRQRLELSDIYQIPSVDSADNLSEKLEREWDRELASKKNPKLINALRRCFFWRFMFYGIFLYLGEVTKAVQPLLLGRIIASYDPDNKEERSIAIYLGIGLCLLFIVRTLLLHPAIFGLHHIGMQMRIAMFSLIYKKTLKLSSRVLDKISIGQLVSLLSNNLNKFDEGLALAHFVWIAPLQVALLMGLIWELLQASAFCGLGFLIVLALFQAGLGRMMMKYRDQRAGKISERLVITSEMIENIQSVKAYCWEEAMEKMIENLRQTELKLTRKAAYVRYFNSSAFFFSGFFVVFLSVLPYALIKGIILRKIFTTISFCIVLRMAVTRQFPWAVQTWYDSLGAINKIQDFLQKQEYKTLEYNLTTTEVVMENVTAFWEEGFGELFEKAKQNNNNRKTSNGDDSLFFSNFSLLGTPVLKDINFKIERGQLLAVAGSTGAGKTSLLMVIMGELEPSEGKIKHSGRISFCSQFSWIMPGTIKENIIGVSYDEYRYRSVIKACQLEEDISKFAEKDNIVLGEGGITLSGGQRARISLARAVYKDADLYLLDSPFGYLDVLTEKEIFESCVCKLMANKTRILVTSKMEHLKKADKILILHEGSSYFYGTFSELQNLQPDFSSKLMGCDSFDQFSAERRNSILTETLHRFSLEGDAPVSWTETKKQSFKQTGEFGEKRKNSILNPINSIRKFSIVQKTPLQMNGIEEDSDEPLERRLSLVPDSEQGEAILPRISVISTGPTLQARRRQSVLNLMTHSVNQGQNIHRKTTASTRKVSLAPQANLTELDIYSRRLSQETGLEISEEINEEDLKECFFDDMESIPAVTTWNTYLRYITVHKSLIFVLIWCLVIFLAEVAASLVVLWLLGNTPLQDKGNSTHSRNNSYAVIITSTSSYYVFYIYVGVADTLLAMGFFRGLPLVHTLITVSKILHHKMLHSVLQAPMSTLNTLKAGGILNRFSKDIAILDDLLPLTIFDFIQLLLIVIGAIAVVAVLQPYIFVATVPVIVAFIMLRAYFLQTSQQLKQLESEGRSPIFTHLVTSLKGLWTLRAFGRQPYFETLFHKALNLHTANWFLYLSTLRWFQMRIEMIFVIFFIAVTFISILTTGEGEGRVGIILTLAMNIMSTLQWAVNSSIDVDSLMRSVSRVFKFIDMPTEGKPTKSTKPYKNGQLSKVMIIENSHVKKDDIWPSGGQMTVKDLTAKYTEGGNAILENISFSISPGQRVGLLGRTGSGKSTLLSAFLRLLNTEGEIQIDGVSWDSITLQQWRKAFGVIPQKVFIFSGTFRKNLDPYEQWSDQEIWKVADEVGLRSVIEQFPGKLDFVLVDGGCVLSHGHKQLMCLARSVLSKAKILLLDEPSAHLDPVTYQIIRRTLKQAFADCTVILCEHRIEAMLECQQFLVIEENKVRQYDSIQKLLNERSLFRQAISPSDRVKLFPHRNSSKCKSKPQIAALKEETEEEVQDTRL
# test_summary: Cell Surface Expression-Horse Radish Peroxidase (CSE-HRP) assay
# Type: cell-based
# particulars: CFBE41o-F508delCFTR-HRP cells; with co-corrector (2 μM of 3-[(2R,4R)-4-({[1-(2,2-difluoro-1,3-benzodioxol-5-yl)cyclopropyl]carbonyl}amino)-7-methoxy-3,4-dihydro-2H-chromen-2-yl]benzoic acid); read-out: EC50 (with co-corrector)
assay_endpoint: EC50

Task: Please report EC50 with F508delCFTR (Homo sapiens, UniProt P13569, DEL508-508) for item COc1ncc(C(F)(F)F)cc1CO[C@H]1[C@H](C(C)(C)C)[C@@H](C(=O)O)N(C(=O)[C@@H]2CCCCO2)[C@H]1c1ccccc1Br .
Result: 1000 to 10000 nM

Task: Using F508delCFTR (Homo sapiens, UniProt P13569, DEL508-508) as the test system, report measured EC50 of CCc1ccccc1[C@H]1[C@@H](OCCCc2cc(C(F)(F)F)cnc2OC)[C@H](C(C)(C)C)[C@@H](C(=O)O)N1C(=O)[C@@H]1CCCCO1 .
Result: < 1000 nM

Task: Report EC50 from F508delCFTR (Homo sapiens, UniProt P13569, DEL508-508) testing of COc1ccc(C(F)(F)F)cc1CO[C@@H]1[C@H](C(C)(C)C)[C@@H](C(=O)O)N(C(=O)OC(C)C)[C@H]1c1cccnc1OC(C)C
Result: < 1000 nM

Task: Enter recorded EC50 with F508delCFTR (Homo sapiens, UniProt P13569, DEL508-508) for COc1ncc(C2CCC2)cc1CO[C@@H]1[C@H](C(C)(C)C)[C@@H](C(=O)O)N(C(=O)OC(C)C)[C@H]1c1ccccc1Br here.
Result: 1000 to 10000 nM

Task: # lookup: F508delCFTR (Homo sapiens, UniProt P13569, DEL508-508) EC50, key = COc1ncc(C(F)(F)F)cc1CO[C@H]1[C@H](C(C)(C)C)[C@@H](C(=O)O)N(C(=O)[C@@H]2CCCO2)[C@H]1c1cccc(C2CC2)c1
Result: < 1000 nM

Task: Provide the reported EC50 (system: F508delCFTR (Homo sapiens, UniProt P13569, DEL508-508)) for COc1ccc(C(F)(F)F)cc1COC1[C@@H](c2ccccc2)N(C(=O)N(C(C)C)C(C)C)[C@@H](C(=O)O)[C@@H]1C(C)(C)C (mixture of isomers)
Result: > 10000 nM

Task: Please respond with reported EC50 (system F508delCFTR (Homo sapiens, UniProt P13569, DEL508-508)) for COc1ccc(C(F)(F)F)cc1COC1[C@@H](c2cccnc2N(C)C)N(C(=O)C2CCCCC2)[C@@H](C(=O)O)[C@@H]1C(C)(C)C (mixture of isomers) .
Result: 1000 to 10000 nM

Task: State the measured EC50 (F508delCFTR (Homo sapiens, UniProt P13569, DEL508-508)) of COc1ncc(C(F)(F)F)cc1CO[C@H]1[C@H](C(C)(C)C)[C@@H](C(=O)O)N(C(=O)[C@@H]2CCCCO2)[C@H]1c1ccccc1-c1ccc(C#N)cc1
Result: 1000 to 10000 nM

Task: Give EC50 for this entry on F508delCFTR (Homo sapiens, UniProt P13569, DEL508-508): COc1ncc(C(F)(F)F)cc1CO[C@H]1[C@H](C(C)(C)C)[C@@H](C(=O)O)N(C(=O)[C@@H]2CCCO2)[C@H]1c1cccnc1OC(C)C
Result: < 1000 nM

Task: Answer with EC50 of COc1ncc(C2CCC2)cc1CO[C@H]1[C@H](C(C)(C)C)[C@@H](C(=O)O)N(C(=O)C2CCCCC2)[C@H]1c1cccnc1OC(C)C measured for F508delCFTR (Homo sapiens, UniProt P13569, DEL508-508).
Result: 1000 to 10000 nM

Task: # return EC50 of COc1ncc(C(F)(F)F)cc1CO[C@H]1[C@H](C(C)(C)C)[C@@H](C(=O)O)N(C(=O)C2=CCCCO2)[C@H]1c1ccccc1C (system: F508delCFTR (Homo sapiens, UniProt P13569, DEL508-508))
Result: < 1000 nM

Task: Please indicate recorded EC50 of CC(C)Oc1ncccc1[C@H]1[C@@H](OCc2coc3ccc(C(F)(F)F)cc23)[C@H](C(C)(C)C)[C@@H](C(=O)O)N1C(=O)C1CCCCC1 measured with F508delCFTR (Homo sapiens, UniProt P13569, DEL508-508).
Result: < 1000 nM

Task: Jot down EC50 (F508delCFTR (Homo sapiens, UniProt P13569, DEL508-508)) of COc1nc2ccccc2cc1CO[C@H]1[C@H](C(C)(C)C)[C@@H](C(=O)O)N(C(=O)[C@H]2CCCCO2)[C@H]1c1ccccc1C(C)C .
Result: < 1000 nM

Task: Answer briefly: EC50 recorded on F508delCFTR (Homo sapiens, UniProt P13569, DEL508-508) for COc1ccc(C(F)(F)F)cc1COC1[C@@H](c2ccccc2)N(C(=O)C2CCCCC2)[C@@H](C(=O)O)[C@@H]1C(C)(C)C (mixture of isomers)
Result: 1000 to 10000 nM

Task: # assay system F508delCFTR (Homo sapiens, UniProt P13569, DEL508-508): give EC50 of COc1ncc(C(F)(F)F)cc1CO[C@H]1[C@H](C(C)(C)C)[C@@H](C(=O)O)N(C(=O)C2CCCCC2)[C@H]1c1ccccc1F
Result: 1000 to 10000 nM

Task: Answer briefly: EC50 recorded on F508delCFTR (Homo sapiens, UniProt P13569, DEL508-508) for COc1nc2ccccc2cc1CO[C@H]1[C@H](C(C)(C)C)[C@@H](C(=O)O)N(C(=O)[C@@H]2CCCCO2)[C@H]1c1ccccc1C(C)C
Result: < 1000 nM

Task: Jot down EC50 (F508delCFTR (Homo sapiens, UniProt P13569, DEL508-508)) of COc1ncc(C(F)(F)F)cc1CO[C@H]1[C@H](C(C)(C)C)[C@@H](C(=O)O)N(C(=O)[C@@H]2CCCO2)[C@H]1c1cccc(Br)c1 .
Result: < 1000 nM

Task: // fetch EC50; item: COc1ncc(C(F)(F)F)cc1CO[C@H]1[C@H](C(C)(C)C)[C@@H](C(=O)O)N(C(=O)OC(C)C)[C@H]1c1cccc(Br)c1 ; system: F508delCFTR (Homo sapiens, UniProt P13569, DEL508-508)
Result: < 1000 nM

Task: Please tell me the measured EC50 for COc1ncc(C(F)(F)F)cc1CO[C@H]1[C@H](C(C)(C)C)[C@@H](C(=O)O)N(C(=O)[C@@H]2CCCCO2)[C@H]1c1ccccc1Cl ; system: F508delCFTR (Homo sapiens, UniProt P13569, DEL508-508).
Result: < 1000 nM

Task: For F508delCFTR (Homo sapiens, UniProt P13569, DEL508-508), give EC50 of the listed compound: COc1ncc(C(F)(F)F)cc1CO[C@H]1[C@H](C(C)(C)C)[C@@H](C(=O)O)N(C(=O)[C@@H]2CCCCO2)[C@H]1c1ccccc1-c1ccccc1F
Result: < 1000 nM

Task: Answer briefly: EC50 recorded on F508delCFTR (Homo sapiens, UniProt P13569, DEL508-508) for CCc1ccccc1[C@H]1[C@@H](OCc2cc3cc(Cl)ccc3o2)[C@H](C(C)(C)C)[C@@H](C(=O)O)N1C(=O)[C@@H]1CCCCO1
Result: < 1000 nM

Task: Fill in: EC50 on F508delCFTR (Homo sapiens, UniProt P13569, DEL508-508), entry CCOC(=O)N1[C@H](C(=O)O)[C@@H](C(C)(C)C)[C@H](OCc2cc(C(F)(F)F)cnc2OC)[C@@H]1c1cccc(C(C)(C)C)c1
Result: 1000 to 10000 nM

Task: Identify measured EC50 obtained with F508delCFTR (Homo sapiens, UniProt P13569, DEL508-508) for COc1ncc(C2CCC2)cc1CO[C@H]1[C@H](C(C)(C)C)[C@@H](C(=O)O)N(C(=O)[C@@H]2CCCCO2)[C@H]1c1cccc2c1CCCC2 .
Result: < 1000 nM
